For NCI-H460 lung, measured GI50 is reported for the entries below.

Below: 2 compounds and their reported GI50.
N#Cc1c(NC(=O)c2cccc3ccccc23)sc2c1CCCC2
0.0785 µM
COc1ccc(Cn2cnc3cc(C(=O)Nc4cccc5ccccc45)ccc32)c(OC)c1
0.0363 µM

Field request: GI50 | item: O=C1c2cccc3cccc(c23)C(=O)N1CCCCN1CCN(CCCCOc2ccc(-c3nc4ccc(N5CCOCC5)cc4[nH]3)cc2)CC1 > 100 µM

Ok, now CC(C)(C)c1cn2cccc(C(=O)N3CCN(CC(=O)Nc4ccc(Cl)cc4C(=O)c4ccccc4Cl)CC3)c2n1 5.79 µM

Ok, now Oc1ccccc1Nc1nc2ccccc2c2occc12 14.1 µM

Ok, now O=C(CC(O)c1ccncc1)c1ccccc1 (stereo not given) 27.1 µM

Ok, now CC1(C)N=C(N)N=C(N)N1c1ccc(OCC(=O)N2CCOCC2)c(Cl)c1 0.362 µM

Ok, now CCN(CC)CCCNc1nc2ccccc2c2c(=O)c3cc(Cl)ccc3sc12 1.7 µM

Ok, now CC1CC(C)/C(=N/NC(N)=O)C(C(O)CC2CCC(=O)NC2=O)C1 (stereo not given) 4 µM

Ok, now c1ccc2c(-c3nc4ccccc4[nH]3)cccc2c1 3.17 µM

---

System: OVCAR-5 ovarian
METHOD DESCRIPTION: NCI tumour cell line growth inhibition, 48 h; in the data active = GI50 below about 0.43 µM; inactive = the rest
Log the outcome using a class from active, inactive

The examples below pair each entry with its known result.
N#Cc1c(NC(=O)c2cccc3ccccc23)sc2c1CCCC2
active
COc1ccc(Cn2cc3c(c2-c2ccc(O)cc2)CCc2cnoc2-3)cc1
inactive

For c1ccc2c(-c3nc4ccccc4[nH]3)cccc2c1 , which call appears in the assay record? inactive

Ok, now O[C@@H]1CCCN1Cc1cc2cc3c(cc2c2cc(OCc4ccccc4)ccc12)OCO3 inactive

Ok, now COc1cc(Nc2ncc3c(C)nc(-c4cccc(Oc5ccccc5)c4)n3n2)cc(OC)c1OC inactive

Ok, now COc1cc(-n2cc(-c3ccc(F)cc3)[nH]c2=S)cc(OC)c1OC inactive

---

System: K-562 leukemia
METHOD DESCRIPTION: NCI tumour cell line growth inhibition, 48 h; in the data active = GI50 below about 0.43 µM; inactive = the rest
Log the outcome using a class from Y = active, N = inactive

C=C(C)[C@@H]1CC[C@]2(C(=O)O)CC[C@]3(C)[C@H](CC[C@@H]4[C@@]5(C)C[C@@H](CC#Cc6ccc(Br)cc6)C(=O)C(C)(C)[C@@H]5CC[C@]43C)[C@@H]12
N
Cn1ccnc1C(=O)/C=C/c1ccc(C(=O)Nc2ccccc2O)cc1
N
O[C@@H]1CCCN1Cc1cc2cc3c(cc2c2cc(OCc4ccccc4)ccc12)OCO3
N
COC(=O)c1cc2c3ccccc3n3c(=O)c4cc5cc(OC)c(N(S(=O)(=O)c6ccc(C)cc6)S(=O)(=O)c6ccc(C)cc6)cc5nc4c(n1)c23
N

For CCCCCCCCCCCCCCCCOC(=O)c1c(C)[nH]c(/C=C2\N=C(c3ccc[nH]3)C=C2OC)c1C , which call appears in the assay record? Y

Ok, now COc1cc(OC)c2cc(C(=O)O)c(=O)oc2c1 N

Ok, now Cc1cc(NCCCCNc2ccnc3cc(Cl)ccc23)nc(Nc2ccc(C(=O)N3CCCC3)cc2)n1 Y

Ok, now CC(C)(C)c1cn2cccc(C(=O)N3CCN(CC(=O)Nc4ccc(Cl)cc4C(=O)c4ccccc4Cl)CC3)c2n1 N
